The origin of these recorded values is PubChem BioAssay (NCI).

# Test system: MDA-MB-231 breast
# assayInfo: NCI-60 one-dose screen, 48 h (100 = growth as untreated, 0 = no growth, -100 = all killed)
# measurementConditions: 10 µM unless noted
About 83,000 compounds went through this panel and 20% of them were active in at least one assay; those are over-represented in the sample as a whole.
quantityName: growth (%)
The response must be a number in % with no trailing unit.

INPUT: Would you mind telling me what growth value was observed for CN(C)c1ccc(-c2cc(-c3c[nH]c4ccccc34)nc(N)c2C#N)cc1 ?
OUTPUT: 36

INPUT: Another compound: Cc1cc2nc(C(Cl)Cl)nc(-c3ccc(S(=O)(=O)N(C)C)cc3)n2n1
OUTPUT: 12.6

INPUT: Another compound: CN(C)S(=O)(=O)c1ccc(-c2nc(C(Cl)Cl)nc3cc(-c4ccccc4)nn23)cc1
OUTPUT: 48.8

INPUT: Another compound: COC(=O)CCSC1=C(C)C(=O)c2ccccc2C1=O
OUTPUT: 75.6

INPUT: Another compound: C#CCN(C)CCCOc1ccc(NC(=O)CCCCCCC(=O)NO)cc1Cl
OUTPUT: 16.3

INPUT: Another compound: O=S(=O)(NCCCNc1nccc(-c2[nH]c(-c3ccccc3)nc2-c2ccc(F)c(O)c2)n1)c1ccc(C(F)(F)F)cc1
OUTPUT: 67.1

INPUT: Another compound: O=C(CCCCCCN1CC(=O)N2[C@@H](C3CC3)c3[nH]c4ccccc4c3C[C@H]2C1=O)NO
OUTPUT: 83.7

INPUT: Another compound: COc1ccc(C(=O)c2c(N)c(C#N)cn2-c2ccc(Cl)cc2Cl)cc1
OUTPUT: 90.8

INPUT: Another compound: CCOC(=O)c1cccc(NC2=C(Cl)C(=O)C(C)=C(C)C2=O)c1
OUTPUT: 28

INPUT: Another compound: Fc1cc(F)cc(NNC(=S)c2ccccc2)c1
OUTPUT: 66.5

INPUT: Another compound: COc1ccc2c(c1)c(-c1nn3cc(-c4ccncc4)nc3s1)cn2C
OUTPUT: 77

INPUT: Another compound: CN1CCN(Cc2ccc(NC(=O)c3cncc(C#Cc4cnc5ccc(OCC6COC6)nn45)c3)cc2C(F)(F)F)CC1
OUTPUT: -63

INPUT: Another compound: NCCNC(=O)c1cccc(COc2ccccc2NC(=O)c2cc(Br)c(Br)[nH]2)c1
OUTPUT: 91.4

INPUT: Another compound: CCCCCCN1C=C/C(=C\C(=O)n2ccc3ccccc32)c2ccccc21
OUTPUT: 73

INPUT: Another compound: CCc1cc2c(cc1Cl)nc1c(=O)[nH]c(=O)nc-1n2CCOCC(C)(C)C
OUTPUT: 67.2

INPUT: Another compound: CC1=C(C)C(=O)C(Nc2ccc(C)c(C)c2)=C(Br)C1=O
OUTPUT: 65.1

INPUT: Another compound: COc1ccc(NC(=O)CCCCCCNC(=O)C(O)(O)C(F)(F)F)cc1
OUTPUT: 59.5

INPUT: Another compound: Cn1cc(-c2nc(N)nnc2-c2c[nH]c3ccc(Br)cc23)c2cc(F)ccc21
OUTPUT: 90.2

INPUT: Another compound: c1ccc(-c2cn3c(-c4c[nH]c5ccccc45)csc3n2)cc1
OUTPUT: 61.7

INPUT: Another compound: Cc1ccc(S(=O)(=O)c2nc(-c3ccc(F)cc3)oc2S(C)(=O)=O)cc1
OUTPUT: 65

INPUT: Another compound: Cc1cc(Br)ccc1-n1cc(C#N)c(N)c1C(=O)c1ccc(Br)cc1
OUTPUT: 93.6

INPUT: Another compound: O=C(CCCCCCN1CC(=O)N2[C@@H](c3cccs3)c3[nH]c4ccccc4c3C[C@H]2C1=O)NO
OUTPUT: 93.7

INPUT: Another compound: CN1CCN(CC#CCn2c3c(c4ccccc42)C[C@]2(C)[C@H]4CC=C5[C@@H]6CC(C)(C)CC[C@]6(C(=O)N6CCOCC6)CC[C@@]5(C)[C@]4(C)CC[C@H]2C3(C)C)CC1
OUTPUT: 43.1

INPUT: Another compound: COc1ccc2c(c1)C=CC1(O2)Oc2ccc(OC)cc2C=C1C (centres undefined)
OUTPUT: 2.14

INPUT: Another compound: NNc1nnc2nc(Nc3ccccc3)nc(Nc3ccc(S(N)(=O)=O)cc3)n12
OUTPUT: 95.8

INPUT: Another compound: C#CCOc1ccccc1C(OC(=O)c1ccccc1)C(=O)NC(C)(C)C(C)(C)C (centres undefined)
OUTPUT: 80.8

INPUT: Another compound: O=C(/C=C/Nc1ccc(S(=O)(=O)Nc2ncccn2)cc1)c1ccc(N=Cc2c(O)[nH]c3ccccc23)cc1
OUTPUT: 99.9

INPUT: Another compound: Cc1ccc(C(=O)Nc2ccc(CNCCN3CCNCC3)c(C(F)(F)F)c2)cc1C#Cc1cnc2cccnn12
OUTPUT: -75.6

INPUT: Another compound: CCN(CC)CCOc1ccc(C(=C(C)Cc2ccc(OC)cc2)c2ccc(OCCN(CC)CC)cc2)cc1
OUTPUT: 55.4

----------
# System: UO-31 renal
# assayInfo: NCI-60 one-dose screen, 48 h
# measurementConditions: 10 µM unless noted
# Experimental: Growth inhibition of the UO-31 human tumor cell line is measured as a screen for anti-cancer activity. Cells are grown in 96 well plates and exposed to the test compound for 48 hours. Compounds are tested at a single concentration, which is 10^-5 M for most compounds. The reported endpoint is percent growth (GI% or GIPRCNT), where numbers from 0 - 100% represent growth inhibition, and numbers from -100% - 0 represent cell death. For example, a value of 40 represents 60% growth inhibition. […]
This is part of a sample that, as a whole, favours compounds with a hit. Of some 83,000 tested, about 20% had one in any assay. The source made the active and inactive calls. How the source made its calls: active means growth percent below 10; inactive means the rest.
Give one outcome, nothing more. List: 1.0 (active), 0.0 (inactive)

INPUT: Just curious, what result did CCOP(=O)(OCC)OC[C@]12CCC(C)(C)C[C@H]1C1=CC[C@@H]3[C@@]4(C)CC[C@H](OP(=O)(OCC)OCC)C(C)(C)[C@@H]4CC[C@@]3(C)[C@]1(C)CC2 get here?
OUTPUT: 0.0

INPUT: Another compound: CC(=O)c1c([Si](C)(C)C)c2cc(C#N)ccn2c1C(=O)c1ccc(Br)cc1
OUTPUT: 0.0

INPUT: Another compound: CCOC(=O)c1c(NC(=O)c2cccc(C(F)(F)F)c2)sc2c3c(ccc12)OCN(C)C3
OUTPUT: 0.0

INPUT: Another compound: CSc1ccc(C(=NNS(=O)(=O)c2ccc(C)cc2)c2ccc(Cl)cc2)cc1
OUTPUT: 0.0

INPUT: Another compound: O=C(Nc1ccc(Cl)c(C(F)(F)F)c1)Nc1ccc2oc(=O)ccc2c1
OUTPUT: 0.0

INPUT: Another compound: Cc1ccc(S(=O)(=O)NCCCNc2nc(Nc3ccc(N4CCN(C)CC4)cc3)nc3ccsc23)cc1
OUTPUT: 0.0

INPUT: Another compound: O=C(COc1ccc(/C=C2\C(=O)Nc3ccc(F)cc32)cc1)Nc1ccccc1
OUTPUT: 0.0

INPUT: Another compound: CN1CCN(Cc2ccc(/C=N/Nc3ccnc4cc(Cl)ccc34)cc2)CC1
OUTPUT: 0.0

INPUT: Another compound: CNC(=O)c1cc(N2CCc3cc(NC(=O)Nc4ccc(N5CCOCC5)c(C(F)(F)F)c4)ccc32)ccn1
OUTPUT: 0.0

INPUT: Another compound: CCc1cccc2c3c(sc12)C(c1ccc(F)cc1)C(C#N)=C(/N=C/c1ccc(Cl)cc1)O3 (stereo not given)
OUTPUT: 0.0

INPUT: Another compound: O=C1[C@H]2Cc3c([nH]c4ccccc34)[C@H](c3ccc(Br)cc3)N2C(=O)CN1C1CCN(CC2CCCCC2)CC1
OUTPUT: 0.0

INPUT: Another compound: Brc1ccc(-c2cc(-c3ccc4c(c3)OC=CO4)n[nH]2)s1
OUTPUT: 0.0

INPUT: Another compound: Cc1ccccc1Nc1nc(SC(C)C)nc(-c2ccccc2)c1C#N
OUTPUT: 1.0

INPUT: Another compound: COc1ccc(C2C(C#N)=C(/N=C/c3ccc(Cl)cc3)Oc3c2sc2c(C)cccc32)cc1 (stereo not given)
OUTPUT: 0.0

INPUT: Another compound: CC(=C(c1ccc(OCCCN(C)C)cc1)c1ccc(OCCCN(C)C)cc1)c1ccc(Cl)cc1
OUTPUT: 0.0

INPUT: Another compound: Brc1cccc(-c2cc(-c3cnc4c(c3)OCCO4)n[nH]2)c1
OUTPUT: 0.0

INPUT: Another compound: CNC(=O)c1cc(-c2ccc(NC(=S)Nc3cccc(C(F)(F)F)c3)cc2)nc2cccnc12
OUTPUT: 0.0

INPUT: Another compound: Cc1cc(=O)[nH]c(O)c1C#N
OUTPUT: 0.0

INPUT: Another compound: COc1cc(/C=C2/C(=O)Nc3ccc(Cl)cc32)ccc1OCc1ccc(Cl)cc1
OUTPUT: 0.0

INPUT: Another compound: CCN(CC)c1ccc(/C=N/NC(=O)c2ccc(S(N)(=O)=O)cc2)cc1
OUTPUT: 0.0

INPUT: Another compound: C=C(C)[C@@H]1CC[C@]2(C(=O)NC3CCCCC3)CC[C@]3(C)[C@H](CC[C@@H]4[C@@]5(C)CC[C@H](N)C(C)(C)[C@@H]5CC[C@]43C)[C@@H]12
OUTPUT: 0.0

INPUT: Another compound: Cc1nc(/N=C(N)/N=C(\N)c2cccc(Br)c2)sc1C
OUTPUT: 0.0

INPUT: Another compound: Cc1ccc(S(=O)(=O)c2nc(-c3ccc(F)cc3)oc2S(C)(=O)=O)cc1
OUTPUT: 0.0

INPUT: Another compound: COc1cc(-c2nc(-c3ccccc3)[nH]c2-c2ccnc(NCCCNS(=O)(=O)c3ccc(C)cc3)n2)ccc1F
OUTPUT: 0.0

INPUT: Another compound: CN1CCN(c2ccc(Nc3nc(NCCCNS(=O)(=O)c4ccc(C(F)(F)F)cc4)c4sccc4n3)cc2)CC1
OUTPUT: 1.0

INPUT: Another compound: C#CCN(C)CCCOc1ccc(NCc2ccc(C(=O)NO)cc2)cc1Cl
OUTPUT: 1.0

INPUT: Another compound: Cc1cc(=O)oc2cc(OCCCOc3ccc(/C=C/C(=O)Nc4ccc(Br)cc4)cc3)ccc12
OUTPUT: 0.0

INPUT: Another compound: O=C(COc1ccc(/C=C2\C(=O)Nc3cc(Cl)ccc32)cc1)Nc1ccc(Cl)cc1
OUTPUT: 0.0

INPUT: Another compound: C/C(=N\NC(=O)/C=C/CC(=O)O)c1nnn(-c2ccc([N+](=O)[O-])cc2)c1C
OUTPUT: 0.0

INPUT: Another compound: C#Cc1nc(/C=C/CCCCCCC(=O)NO)cs1
OUTPUT: 1.0
